# target: full-length human Mineralocorticoid Receptor (MR) (Homo sapiens, UniProt P08235)
# Sequence (P08235 whole entry): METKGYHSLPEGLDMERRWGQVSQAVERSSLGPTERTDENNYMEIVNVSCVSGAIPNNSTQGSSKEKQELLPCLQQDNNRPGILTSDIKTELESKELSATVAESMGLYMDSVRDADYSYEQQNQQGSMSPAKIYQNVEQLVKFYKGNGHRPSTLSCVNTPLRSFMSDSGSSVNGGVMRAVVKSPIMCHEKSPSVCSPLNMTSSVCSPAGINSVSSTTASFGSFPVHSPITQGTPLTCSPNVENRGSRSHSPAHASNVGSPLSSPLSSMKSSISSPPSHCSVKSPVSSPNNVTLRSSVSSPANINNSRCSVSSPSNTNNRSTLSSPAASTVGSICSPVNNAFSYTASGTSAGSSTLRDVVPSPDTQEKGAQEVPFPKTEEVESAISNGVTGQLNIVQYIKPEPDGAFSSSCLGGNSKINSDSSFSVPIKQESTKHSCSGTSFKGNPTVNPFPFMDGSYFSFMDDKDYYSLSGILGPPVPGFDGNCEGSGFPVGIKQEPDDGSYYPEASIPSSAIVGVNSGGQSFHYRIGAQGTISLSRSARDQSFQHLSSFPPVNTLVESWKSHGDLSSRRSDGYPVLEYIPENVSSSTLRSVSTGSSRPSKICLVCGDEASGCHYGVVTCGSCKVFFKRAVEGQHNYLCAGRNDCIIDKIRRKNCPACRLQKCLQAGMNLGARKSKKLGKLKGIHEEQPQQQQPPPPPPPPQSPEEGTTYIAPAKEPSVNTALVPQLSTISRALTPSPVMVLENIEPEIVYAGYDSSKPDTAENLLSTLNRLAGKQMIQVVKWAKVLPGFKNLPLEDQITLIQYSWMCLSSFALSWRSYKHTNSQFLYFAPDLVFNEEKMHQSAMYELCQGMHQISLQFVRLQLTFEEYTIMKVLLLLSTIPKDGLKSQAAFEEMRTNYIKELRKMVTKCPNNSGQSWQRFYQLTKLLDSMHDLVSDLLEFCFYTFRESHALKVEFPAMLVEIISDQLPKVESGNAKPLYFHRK
# protocol: human MR NH Pro assay (PathHunter Protein:Protein interaction assay), MR antagonism
# experimental setup: IP = inflection point of the dose-response curve; CHO-K1 cells overexpressing human MR, aldosterone about 0.3 nM to about 1 nM, 6 hours at 37° C.
pIC50: −log10 of the molar value.
Classification field: class 1 = pIC50 at or over 8; class 0 = pIC50 under 8.

Examples from the recorded data:
CCC(c1ccc(C(F)(F)F)cc1)(C(O)C(F)F)n1ncc2c(NS(=O)(=O)CC)cccc21 (single isomer, unassigned) [Compound 50]    class 1
CCC(O)C(CC)(c1ccc(C#N)cc1)n1ncc2c(NS(C)(=O)=O)cccc21 (single isomer, unassigned) [Compound 15]    class 0
CCC(O)C(CC(F)F)(c1ccc(C(F)(F)F)cc1)n1ncc2c(NS(C)(=O)=O)cccc21 (single isomer, unassigned) [Compound 41]    class 0

Please examine the following record next.
Could you verify whether the entry CCC(O)C(CC)(c1ccc(Br)cc1)n1ncc2c(NS(C)(=O)=O)cccc21 (single isomer, unassigned) [Compound 8] shows pIC50 of no less than 8?
class 0

This collection of values is drawn from patent US9511052B2.
